Taken from the Deep4Chem optical property database.

- Test name: solvent given as SMILES
- Stated conditions: in CC#N
Tag: rule met if measured emission maximum is not below 500 nm, rule not met if it is.

Request: Textbook exercise: given the entry CC1=N/C(=C\c2ccccc2N(C)C)C(=O)N1C , state whether its emission maximum is greater than or equal to 500 nm.
Response: rule met

Request: Now give it for CCC1=C(C)C2=C(c3ccc(-c4c5ccccc5c(-c5ccccc5)c5ccccc45)cc3)c3c(C)c(CC)c(C)n3[B-](F)(F)[N+]2=C1C too.
Response: rule met

Request: // query: Clc1nc(Cl)nc(Nc2ccc3c4cccc5cccc(c6cccc2c63)c54)n1
Response: rule not met

Next:
Request: Decide: is the reported value of emission maximum for c1ccc2c(c1)nc1ccccn12 equal to or greater than 500 nm?
Response: rule not met

Request: How about COc1ccc(-n2nc(C#N)c(N3CCCCC3)n2)cc1 ?
Response: rule not met

Request: And for N#C/C(=C\c1ccc([N+](=O)[O-])cc1)c1nc(-c2ccccc2)cs1 ?
Response: rule met

Request: Could you do the same for Nc1ccc2ccc3cccc4ccc1c2c34 , please?
Response: rule not met
